Where these numbers come from: ChEMBL document CHEMBL2331395

parameter: Ki

# returns recorded Ki (system: Carbonic anhydrase 2 (Homo sapiens)) for COc1cc2oc(=O)ccc2c2c1C=CC(C)(C)O2 [ALLOXANTHOXYLETIN]
> 100 µM

# returns recorded Ki (system: Carbonic anhydrase 2 (Homo sapiens)) for COc1c2c(cc3oc(=O)ccc13)OC(C)(C)C=C2 [XANTHOXYLETIN]
> 100 µM

# returns recorded Ki (system: Carbonic anhydrase 2 (Homo sapiens)) for C=C(C)/C=C/c1c(OC)c2c(c3ccc(=O)oc13)OC(C)(C)C=C2
> 100 µM
